biological target: Heat shock protein HSP 90-alpha (Homo sapiens, UniProt P07900)
experimentalReadout: pIC50
// field semantics: pIC50 = negative decimal log of concentration (mol/L)

Data request: # get_value(readout='pIC50', item= `CCNc1cc(-c2nccc3c(-n4cnc(-c5cnn(C)c5)c4)cccc23)ccc1C(N)=O` )
Data returned: 6.72
